Listed below: TGI values for each entry.
system: NCI-H460 lung; assay: NCI tumour cell line growth inhibition, 48 h
Assay Endpoint: TGI (µM)

compound=Cc1ncc(C(=O)Nc2ccc(CN3CCN(C)CC3)c(C(F)(F)F)c2)cc1C#Cc1cnc(N)cc1C#N unit=µM result_modifier== measurement=2.84
compound=Cc1cc(S(=O)(=O)Nc2nc3ccccc3c(=O)n2N)c(S)cc1Cl unit=µM result_modifier=> measurement=100
compound=COc1ccc2nc(-c3ccc(O)cc3)sc2c1 unit=µM result_modifier=> measurement=100
compound="Cn1c2ccccc2c(=O)c2cccc(C(=O)NC(CCC(N)=O)C(=O)O)c21 (configuration not stated)" unit=µM result_modifier=> measurement=100
compound="CC(=O)OCC1OC(n2c(-c3ccc(C)cc3)cc(-c3ccccc3)c(C#N)c2=O)C(OC(C)=O)C(OC(C)=O)C1OC(C)=O (configuration not stated)" unit=µM result_modifier=> measurement=100
compound="O=C(O)CN1C(=O)C(Cc2ccc(O)cc2)N=C(c2cccc(O)c2)c2ccccc21 (configuration not stated)" unit=µM result_modifier=> measurement=100
compound=CCOC(=O)c1c(N2CCOCC2)[nH]c(=O)c(C(c2ccco2)c2c(O)c(C(=O)OCC)c(N3CCOCC3)[nH]c2=O)c1O unit=µM result_modifier=> measurement=100
compound=O=c1c(-c2ccccc2)coc2cc(OC/C(=N/O)c3ccccc3)ccc12 unit=µM result_modifier== measurement=26.9
compound=CC(C)(c1ccccc1)c1ccc(OC#N)cc1 unit=µM result_modifier=> measurement=59.1
compound=CN(C)c1ccc(/C=c2\sc3nc4ccccc4n3c2=O)cc1 unit=µM result_modifier=> measurement=100
compound=O=C1c2ccc(O)c(O)c2C(=O)c2c(O)ccc(O)c21 unit=µM result_modifier== measurement=49.8
compound=Cc1cc(N2CCOCC2)cc2[nH]c(-c3c(NC[C@@H](O)c4cccc(Cl)c4)cc[nH]c3=O)nc12 unit=µM result_modifier== measurement=11.2
compound=COc1cc2c(cc1OC)/C(=C\c1ccccc1N)C(=O)OC2 unit=µM result_modifier== measurement=33.5
compound=COc1ccc(-c2cc3[nH]nc(N)c3c(=O)o2)cc1 unit=µM result_modifier=> measurement=100
compound=Cc1ccc(S(=O)(=O)N2CCCSCC2)cc1 unit=µM result_modifier=> measurement=100
compound=Oc1ccc2oc3ncc(Br)c(-c4ccccc4)c3c2c1 unit=µM result_modifier=> measurement=100
compound=O=C1C(=Cc2c(O)cc(O)cc2O)C(=O)c2ccccc21 unit=µM result_modifier=> measurement=67.7
compound="N[C@H]1CCCC[C@@H]1N1C(=O)c2ccccc2C1(O)c1ccc(Cl)cc1 (some centres not stated)" unit=µM result_modifier== measurement=25.2
compound=N#C/C(N)=C(\C#N)NC(=O)C(=O)N/C(C#N)=C(\N)C#N unit=µM result_modifier=> measurement=100
compound="N#CC1CC2(CCN1C(=O)c1ccccc1)OCCO2 (configuration not stated)" unit=µM result_modifier=> measurement=100
compound="COc1cc(C(O)(CC#N)c2cc3c(cc2Br)OCO3)cc(OC)c1OC (configuration not stated)" unit=µM result_modifier== measurement=50.8
compound=C[C@@H]1CC[C@@H]2[C@@H](C1)O[C@@H]([C@H](C)OCc1ccccc1)SC2(C)C unit=µM result_modifier== measurement=53.5
compound=C/C(=C\c1csc(C)n1)[C@@H]1C[C@@H]2O[C@]2(C)CCC[C@H](C)[C@H](O)[C@@H](C)C(=O)C(C)(C)[C@@H](O)CC(=O)O1 unit=µM result_modifier=> measurement=100
compound=NC(=S)N/N=C\c1nccc2ccccc12 unit=µM result_modifier== measurement=25.5
compound=OCC#Cc1ccccc1C#CCCCCCC#Cc1ccccc1C#CCO unit=µM result_modifier== measurement=34
compound=O=c1c(O)c(-c2cc(O)c(O)c(O)c2)oc2cc(O)cc(O)c12 unit=µM result_modifier== measurement=39.1
compound=Clc1ccc(C(n2cc(Br)cn2)n2cc(Br)cn2)cc1 unit=µM result_modifier== measurement=33.7
compound="CC(C)CC(NC(=O)OC(C)(C)C)C(=O)Nc1ccc(Nc2nc(F)nc(-c3c4ccccc4cn3C)n2)cc1 (configuration not stated)" unit=µM result_modifier=> measurement=100
compound=NC(N)=NS(=O)(=O)c1ccc(Nc2c3ccccc3nc3c(C(=O)Nc4ccc(S(N)(=O)=O)cc4)cccc23)cc1 unit=µM result_modifier=> measurement=100
compound=N#Cc1c(N)nc(Sc2ccccc2N)c(C#N)c1-c1ccc(Cl)cc1 unit=µM result_modifier== measurement=58.6
compound=O=C1c2ccccc2S(=O)(=O)c2cc(-c3nn[nH]n3)ccc21 unit=µM result_modifier=> measurement=100
compound="C=CCC1C(=O)CC2(C)CC(=O)C(CC=C)C12C (configuration not stated)" unit=µM result_modifier=> measurement=100
